Biological target: β1i (Homo sapiens, UniProt P28065+P40306)
Construct: protease activity associated with the proteasome complex in cultured cells; endogenous in cells
Assay: Cell-Based Proteasome Activity/Selectivity Assay (Ramos cells), substrate (PAL)2Rh110
Conditions: highest concentration tested 20 μM
parameter: IC50

IN: Field request: IC50 | item: C[C@H](NC(=O)OCc1ccccc1)C(=O)N[C@@H](Cc1c[nH]c2ccccc12)C(=O)N[C@@H](Cc1ccccc1)C(=O)C(=O)N(C)Cc1ccccc1 [Example 38]
OUT: > 20 µM

IN: What does the record list as IC50 for COc1ccc(C[C@H](NC(=O)[C@H](C)NC(=O)C2Cc3ccccc3C2)C(=O)NC2(C(=O)C(=O)NCc3ccccc3)Cc3ccccc3C2)cc1 [Example 59] ?
OUT: > 20 µM

IN: Find the recorded IC50 belonging to C[C@H](NC(=O)OCc1ccccc1)C(=O)N[C@@H](Cc1c[nH]c2ccccc12)C(=O)N[C@@H](Cc1ccccc1)C(=O)C(=O)NCc1ccccn1 [Example 34] and report it.
OUT: 0.589 µM

====

Provide the recorded pIC50 for the entries that follow.
Target: β1i (Homo sapiens, UniProt P28065+P40306)
Construct: protease activity associated with the proteasome complex in cultured cells; endogenous in cells
Experiment: Cell-Based Proteasome Activity/Selectivity Assay (Ramos cells), substrate (PAL)2Rh110
Conditions: highest concentration tested 20 μM
Scale for pIC50: -log10 of concentration given in mol/L; no unit attached.

IN: What reported pIC50 corresponds to C[C@H](NC(=O)OCc1ccccc1)C(=O)N[C@@H](Cc1c[nH]c2ccccc12)C(=O)N[C@@H](Cc1ccccc1)C(=O)C(=O)NCc1ccccc1 on β1i (Homo sapiens, UniProt P28065+P40306)?
OUT: 6.56

IN: Write down the reported pIC50 of CCCC[C@H](NC(=O)[C@H](Cc1c[nH]c2ccccc12)NC(=O)[C@H](C)NC(=O)C1=C(C)c2ccccc2C1)C(=O)C(=O)NCc1ccccc1 , test system: β1i (Homo sapiens, UniProt P28065+P40306).
OUT: 6.85

IN: I'm curious: which pIC50 was measured for Cc1cc(C(=O)N[C@@H](C)C(=O)N[C@@H](Cc2c[nH]c3ccccc23)C(=O)N[C@@H](Cc2ccccc2)C(=O)C(=O)NCc2ccccc2)no1 tested on β1i (Homo sapiens, UniProt P28065+P40306)?
OUT: 6.15

IN: # value lookup — system β1i (Homo sapiens, UniProt P28065+P40306), readout pIC50, item COc1ccc(C[C@H](NC(=O)[C@H](C)NS(=O)(=O)c2ccccc2)C(=O)N[C@@H](Cc2ccccc2)C(=O)C(=O)NCc2ccccc2)cc1
OUT: 6.22

====

Record form. Attribute: pEC50. Fill in for each entry.
System: IP10 level in PBMCs stimulated with CpG Type A
Assay: PBMC IP-10 Assay
Type: cell-based
Details: CpG Type A 2.5 μM
Recall that pEC50 is obtained by taking minus log10 of the concentration measured in molar.

IN: What does the data say about its pEC50? Entry: CNC(=O)C(=O)[C@H](Cc1ccccc1)NC(=O)[C@H](Cc1c[nH]c2ccccc12)NC(=O)[C@H](C)NC(=O)OCc1ccccc1
OUT: 5.93

IN: Would you kindly share the measured pEC50 for COc1ccc(C[C@H](NC(=O)[C@H](C)NC(=O)CN2CCOc3ccccc32)C(=O)N[C@@H](Cc2ccccc2)C(=O)C(=O)NCc2ccccc2)cc1 ?
OUT: 6.21

IN: What does the record list as pEC50 for C[C@H](NC(=O)C1Cc2ccccc2C1)C(=O)N[C@@H](CCc1ccccc1)C(=O)N[C@@H](Cc1ccccc1)C(=O)C(=O)NCc1ccccc1 ?
OUT: 6.42

IN: # get_value(readout='pEC50', item= C[C@H](NC(=O)OCc1ccccc1)C(=O)N[C@@H](Cc1ccncc1)C(=O)N[C@@H](Cc1ccccc1)C(=O)C(=O)NCc1ccccc1 )
OUT: 5.88

IN: Requested field: pEC50. Item: CC1=C(C(=O)N[C@@H](C)C(=O)N[C@@H](Cc2c[nH]c3ccccc23)C(=O)N[C@@H](Cc2ccccc2)C(=O)C(=O)NCc2ccccc2)Cc2ccccc21
OUT: 6.21
